- Target Or System: soluble form of recombinant mouse CD16 (sCD16) (mouse)
- Procedure Text: SPR
pKd: −log10 of the molar value.
Measurement Label: pKd

Substance: malondialdehyde-modified low-density lipoprotein (MDALDL)
Measured Value: 4.60
